Cited source: patent US11072581B2

- assayed target: SauVRS (valyl-tRNA synthetase from Staphylococcus aureus) (Staphylococcus aureus, UniProt Q2FXR8)
- Construct: made in house; host or cells: Escherichia coli M15
- Sequence (Q2FXR8 whole entry): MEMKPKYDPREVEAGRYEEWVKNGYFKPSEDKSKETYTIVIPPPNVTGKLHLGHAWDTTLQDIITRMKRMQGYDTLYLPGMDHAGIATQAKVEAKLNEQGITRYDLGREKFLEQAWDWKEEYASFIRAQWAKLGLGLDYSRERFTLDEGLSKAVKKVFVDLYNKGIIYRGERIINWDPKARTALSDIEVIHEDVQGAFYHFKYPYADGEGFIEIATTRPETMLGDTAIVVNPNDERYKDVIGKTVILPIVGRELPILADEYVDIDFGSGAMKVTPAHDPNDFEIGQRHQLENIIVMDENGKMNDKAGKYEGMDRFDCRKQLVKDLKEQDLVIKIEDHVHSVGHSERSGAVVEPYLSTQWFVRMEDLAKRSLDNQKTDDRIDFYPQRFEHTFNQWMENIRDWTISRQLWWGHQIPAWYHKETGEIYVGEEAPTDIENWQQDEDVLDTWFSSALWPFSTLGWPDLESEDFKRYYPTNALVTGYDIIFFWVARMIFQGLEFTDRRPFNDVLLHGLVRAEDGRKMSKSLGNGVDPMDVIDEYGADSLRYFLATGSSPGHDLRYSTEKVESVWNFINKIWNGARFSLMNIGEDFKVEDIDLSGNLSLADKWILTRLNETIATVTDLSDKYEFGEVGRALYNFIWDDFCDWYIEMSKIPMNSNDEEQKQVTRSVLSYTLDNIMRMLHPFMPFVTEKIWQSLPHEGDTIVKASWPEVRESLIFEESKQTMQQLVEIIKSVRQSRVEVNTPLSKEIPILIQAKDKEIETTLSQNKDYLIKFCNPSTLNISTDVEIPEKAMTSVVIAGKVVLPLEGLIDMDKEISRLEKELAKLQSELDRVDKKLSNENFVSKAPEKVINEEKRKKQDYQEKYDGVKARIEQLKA
- protocol notes: aaRS aminoacylation assay (ATP consumption), SauVRS
- Format: biochemical
- applied conditions: i.a. = inactive at a concentration below 50 uM
readout kind: IC50 SauVRS

compound | readout kind | result
CC(C)C[C@H](N)C(=O)NS(=O)(=O)c1cccc(-c2ccnc(N)n2)c1 [Compound 5.37] | IC50 SauVRS | i.a.
Cc1cc(-c2cccc(S(=O)(=O)NC(=O)[C@@H](N)C3CC3)c2)nc(N)n1 [Compound 5.33] | IC50 SauVRS | i.a
CCc1cc(-c2cccc(S(=O)(=O)NC(=O)[C@@H](N)CC(C)C)c2)nc(N)n1 [Compound 5.47] | IC50 SauVRS | i.a.
CC(C)C[C@H](N)C(=O)NS(=O)(=O)c1cccc(-c2ncnc(N)n2)c1 [Compound 5.48] | IC50 SauVRS | i.a.

* * *

- assayed target: SauVRS (valyl-tRNA synthetase from Staphylococcus aureus) (Staphylococcus aureus, UniProt Q2FXR8)
- Construct: made in house; host or cells: Escherichia coli M15
- protocol notes: aaRS aminoacylation assay (ATP consumption), SauVRS
- Assay type: biochemical
- applied conditions: i.a. = inactive at a concentration below 50 uM

smiles str | IC50 SauVRS
CC(C)C[C@H](N)C(=O)NS(=O)(=O)c1ccccc1F | i.a
CC(C)C[C@H](N)C(=O)NS(=O)(=O)c1cccc2ccncc12 | i.a
Cc1cc(-c2cccc(S(=O)(=O)NC(=O)[C@@H](N)C3CCCCC3)c2)nc(N)n1 | i.a
CNc1cc(-c2cccc(S(=O)(=O)NC(=O)[C@@H](N)CC(C)C)c2)nc(N)n1 | i.a
CC(C)C[C@H](N)C(=O)NS(=O)(=O)c1cccc(Cl)c1 | i.a
CC(C)C[C@H](N)C(=O)NS(=O)(=O)c1ccccc1-c1ccccc1 | i.a
COc1ccc2cc(S(=O)(=O)NC(=O)[C@@H](N)CC(C)C)ccc2c1 | i.a
CC(C)C[C@H](N)C(=O)NS(=O)(=O)c1cccc(-c2cc(N)nc(N)n2)c1 | i.a.
CC(C)C[C@H](N)C(=O)NS(=O)(=O)c1ccc(-c2ccccc2)cc1 | i.a
CC(C)C[C@H](N)C(=O)NS(=O)(=O)c1c(C(C)C)cc(C(C)C)cc1C(C)C | i.a
CC(C)C[C@H](N)C(=O)NS(=O)(=O)c1cccc(-c2nc(N)nc3nc[nH]c23)c1 | i.a.
CC(C)C[C@H](N)C(=O)NS(=O)(=O)c1cccc2ccccc12 | i.a
CC(C)C[C@H](N)C(=O)NS(=O)(=O)c1cccc2cc(C(N)=O)ncc12 | i.a
CC(C)C[C@H](N)C(=O)NS(=O)(=O)c1cccc(-c2cc(N)ncn2)c1 | i.a.
Cc1cc(-c2cccc(S(=O)(=O)NC(=O)[C@@H](N)CC3CC3)c2)nc(N)n1 | i.a
CC(C)C[C@H](N)C(=O)NS(=O)(=O)c1cccc(-c2ccnc(Cl)n2)c1 | i.a.
CC(C)C[C@H](N)C(=O)NS(=O)(=O)c1cccc2c1CNCC2 | i.a

* * *

- assayed target: SauIRS (isoleucyl-tRNA synthetase from Staphylococcus aureus) (Staphylococcus aureus)
- Construct: made in house; host or cells: Escherichia coli M15
- Sequence (P41972 whole entry): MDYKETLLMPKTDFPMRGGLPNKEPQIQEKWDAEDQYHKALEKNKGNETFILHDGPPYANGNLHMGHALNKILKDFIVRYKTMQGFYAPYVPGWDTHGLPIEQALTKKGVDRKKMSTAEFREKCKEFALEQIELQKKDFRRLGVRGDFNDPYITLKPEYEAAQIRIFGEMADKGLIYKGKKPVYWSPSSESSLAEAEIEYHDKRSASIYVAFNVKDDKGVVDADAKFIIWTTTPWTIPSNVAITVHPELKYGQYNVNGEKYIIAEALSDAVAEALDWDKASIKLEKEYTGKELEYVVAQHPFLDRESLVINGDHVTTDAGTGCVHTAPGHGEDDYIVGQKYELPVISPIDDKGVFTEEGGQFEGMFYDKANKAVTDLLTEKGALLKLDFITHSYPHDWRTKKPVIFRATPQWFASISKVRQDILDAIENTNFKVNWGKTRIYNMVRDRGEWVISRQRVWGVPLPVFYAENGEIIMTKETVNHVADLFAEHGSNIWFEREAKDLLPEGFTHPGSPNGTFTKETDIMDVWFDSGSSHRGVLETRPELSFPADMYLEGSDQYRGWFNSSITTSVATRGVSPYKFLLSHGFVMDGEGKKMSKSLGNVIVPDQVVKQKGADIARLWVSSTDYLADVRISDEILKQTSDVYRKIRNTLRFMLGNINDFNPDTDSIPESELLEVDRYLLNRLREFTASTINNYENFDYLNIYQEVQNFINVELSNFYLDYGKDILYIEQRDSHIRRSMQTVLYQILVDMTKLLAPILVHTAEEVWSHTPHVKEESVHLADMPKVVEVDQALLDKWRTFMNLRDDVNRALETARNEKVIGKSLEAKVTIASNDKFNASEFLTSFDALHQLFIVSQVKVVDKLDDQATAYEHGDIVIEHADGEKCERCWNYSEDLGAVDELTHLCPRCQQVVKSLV
- protocol notes: aaRS aminoacylation assay (ATP consumption), SauIRS
- Format: biochemical
- applied conditions: i.a. = inactive at a concentration below 50 uM
readout kind: IC50 SauIRS

smiles str | result
CC(C)C[C@H](N)C(=O)NS(=O)(=O)c1cccc2cccnc12 | i.a
CC(C)C[C@H](N)C(=O)NS(=O)(=O)c1cccc(Cl)c1 | i.a
COc1cc(-c2cccc(S(=O)(=O)NC(=O)[C@@H](N)CC(C)C)c2)nc(N)n1 | i.a.
CC(C)C[C@H](N)C(=O)NS(=O)(=O)c1cccc(-c2cccc(N)n2)c1 | i.a.
CC(C)C[C@H](N)C(=O)NS(=O)(=O)c1cccc2ccncc12 | i.a
CC(C)C[C@H](N)C(=O)NS(=O)(=O)c1cccc(-c2ccnc(Cl)n2)c1 | i.a.
CC(C)C[C@H](N)C(=O)NS(=O)(=O)c1cccc2cc(C(N)=O)ncc12 | i.a
CC[C@H](C)[C@H](N)C(=O)NS(=O)(=O)c1ccc2ccccc2c1 | i.a
